sequences and their reported total protein half-life in vivo
# protocol_details: total protein half-life in vivo (active degradation + dilution); higher = more stable protein
# particulars: wild type E. coli NCM3722; growth: N-lim chemostat; doubling time 12 h
quantity_name: total protein half-life in vivo (h)

[[record]]
sequence_chain = "MGKSIVVVSAVNFTTGGPFTILKKFLAATNNKENVSFIALVHSAKELKESYPWVKFIEFPEVKGSWLKRLHFEYVVCKKLSKELNATHWICLHDITANVVTKKRYVYCHNPAPFYKGILFREILMEPSFFLFKMLYGLIYKINIKKNTAVFVQQFWMKEKFIKKYSINNIIVSRPEIKLSDKSQLTDDDSQFKNNPSELTIFYPAVPRVFKNYELIISAARKLKEQSNIKFLLTISGTENAYAKYIISLAEGLDNVHFLGYLDKEKIDHCYNISDIVCFPSRLETWGLPLSEAKERGKWVLASDFPFTRETLGSYEKKAFFDSNNDDMLVKLIIDFKKGNLKKDISDANFIYRNENVLVGFDELVNFITEEH"
unit_symbol = "h"
recorded_number = 12.4

[[record]]
sequence_chain = "MDFSLTEEQELLLASIRELITTNFPEEYFRTCDQNGTYPREFMRALADNGISMLGVPEEFGGIPADYVTQMLALMEVSKCGAPAFLITNGQCIHSMRRFGSAEQLRKTAESTLETGDPAYALALTEPGAGSDNNSATTTYTRKNGKVYINGQKTFITGAKEYPYMLVLARDPQPKDPKKAFTLWWVDSSKPGIKINPLHKIGWHMLSTCEVYLDNVEVEESDMVGEEGMGFLNVMYNFEMERLINAARSTGFAECAFEDAARYANQRIAFGKPIGHNQMIQEKLALMAIKIDNMRNMVLKVAWQADQHQSLRTSAALAKLYCARTAMEVIDDAIQIMGGLGYTDEARVSRFWRDVRCERIGGGTDEIMIYVAGRQILKDYQNK [P0A9U8]"
unit_symbol = "h"
recorded_number = 2.16

[[record]]
sequence_chain = "MLCVKNVSLRLPESRLLTNVNFTVDKGDIVTLMGPSGCGKSTLFSWMIGALAEQFSCTGELWLNEQRIDILPTAQRQIGILFQDALLFDQFSVGQNLLLALPATLKGNARRNAVNDALERSGLEGAFHQDPATLSGGQRARVALLRALLAQPKALLLDEPFSRLDVALRDNFRQWVFSEVRALAIPVVQVTHDLQDVPADSSVLDMAQWSENYNKLR"
unit_symbol = "h"
recorded_number = 12.7

